Assay: Encapsulation efficiency of RNA in nanoparticle compositions (RIBOGREEN assay)
Assay type: physicochemical
Details: Table 1A; lipid:DSPC:cholesterol:PEG-DMG 50:10:38.5:1.5 mol %
readout name: EE (%)

{"columns": ["molecule", "obs value"],
 "data": [
  ["CCCCCCCCC(CCCCCCCC)OC(=O)CCCCCCCN(C)CCCCCCCCCCCC(=O)OCCCCC", 96.72],
  ["CCCCCCCCCOC(=O)CCCCCCCN(CCO)CCCCCCCC(=O)OC(CC)CCCCCCCC (stereo not drawn)", 90.82],
  ["CCCCCCCCCOC(=O)CCCCCCCN(CCO)CCCCCCCCCOP(=O)(OCCCCCCCCC)OCCCCCCCCC", 89.5],
  ["CCCCCCCCCC(=O)OC(C)CCCCCCN(CCO)CCCCCCCC(=O)OC(CCCCCCCC)CCCCCCCC (stereo not drawn)", 94.4],
  ["CCCCCCCCCOC(=O)CCCCCCCN(CCO)CCCCCCCC(=O)OC1CCC(C2CCCCC2)CC1 (stereo not drawn)", 90.7],
  ["CCCCCCCCCCCOC(=O)CCCCCN(CCO)CCCCCC(=O)OCCCCCCCCCCC", 94.1],
  ["CCCCCCCCCOC(=O)CCCCCCCN(CCCCCCCC(=O)OC(CCCCCCCC)CCCCCCCC)CCOCCO", 94.28],
  ["CCCCCC=CCC=CCCCCCCCCC(CCCCCCCCC=CCC=CCCCCC)OC(=O)CCCN(C)C (stereo not drawn) [MC3, reference compound]", 97.3],
  ["CCCCCCCCCOC(=O)CCCCCCCN(CCCCCCCC(=O)OC(CCCCCCCC)CCCCCCCC)CCCN(C)S(C)(=O)=O", 92.89],
  ["CCCCCCCCC(CCCCCCCC)OC(=O)CCCCCCCN(CCO)CCCCCC(=O)N(C)CCCCCCCC", 91.94],
  ["CCCCCCCCC(CCCCCCCC)OC(=O)CCCCCCCN(CCO)CCCCCCCC(=O)OCC(CCCCCCC)OC (stereo not drawn)", 25.49],
  ["CCCCCCCCCOC(=O)CCCCCCCN(CCCCCCCC(=O)OC(CCCCCCCC)CCCCCCCC)CCCNC(C)=O", 96],
  ["CCCCCCCCCC(=O)OC(C)CCCCCCN(CCO)CCCCCCCOC(=O)C(CCCCCCCC)CCCCCCCC (stereo not drawn)", 92.9],
  ["CCCCCCCCC(CCCCCCCC)OC(=O)CCCCCCCN(CCO)CCCCCCCC", 95.10],
  ["CCCCCCCCCOC(=O)CCCCCCCN(CCCCCCCC(=O)OC(CCCCCCCC)CCCCCCCC)C[C@H](C)O", 92.44]
]}
